Assay Summary: yeast display, Sf9 membrane polyspecificity reagent, FACS + sequencing; frameworks hold sequencing errors
Measured Quantity: polyreactivity (PSR sort gate)

Solved cases (5 shown):
item_sequence=QVQLVESGGGLVQAGGSLRLSCAASGRTFSYYAMGWYRQAPGKERELVAAITSRGSSTYYADSVKGRFTISRDNAKNTVYLQMNSLKPEDTAVYYCAKVRPYLDTNEYYYWGQGTQVTVSS observed="high polyreactivity"
item_sequence=QVQLVESGGGLVHAGGSLRLSCAASVSTFLFYAMGWYRQAPGKEREFVAAITWSGGSTYYADSVKGRFTISRDNAKNTVYLQMNSLKPEDTAVYYCNGYYVPTTGREFYFAFYYWGQGTQVTVSS observed="low polyreactivity"
item_sequence=QVQLVESGGRLVQAGGTLRLSCAASGRNVGLYAMGWSRQAPGKERELVAAISSTGRTTYADSVKGRFTISRDNAKNNVYLQMNSLIPEVTAVYYCKADARSVCWYYYACLFDYWGQGTQGTVSS observed="low polyreactivity"
item_sequence=QVHLVESGGGLVQAGGSLRLSCAASGITFSKYEMGWYRQAPWKERELVAAITSTGSTYYADSVKGRFTISRDNAKNTVYLQMNSVKPEDTAVYYCAAERRVFYYCHKLTYWYDYWGQGTQVTVSS observed="low polyreactivity"
item_sequence=QVQLVESGGGLVQAGGSLRLSCAASGSNIYTYAMGWYRHAPGKERELVAAISSGGSTTYADSVKGRFTISRDNAKNTVYLEMISLKPEDTAVYYCAADGASRALYDYWGQGTQVTVSS observed="high polyreactivity"

Input line: Look up polyreactivity (PSR sort gate): QVKLVDSGGGLVQAGGSLRLSCAASGNIFYRYAMGWYRQAPGKERELVAAISGNSGNTYYADSVKGRFTISRDNAKNTVYLQMNSLKPDDTAVYYCAAERRAFGHYSWGQGTQVTVSS
Output line: high polyreactivity

Input line: Next sequence up: QAQLVESGGGLVQSGGSLRLSCAASGSIFRPYAMGWYRQAPGKERELVAAISSSGGGTYYADSVKGRFTISRDNAKNTVYLQMNILKPEDTSVYLYGSWGQGTQVNVSS
Output line: low polyreactivity

Input line: Next sequence up: QVQLVESGGGLVQAGGSLRLSCAASGRIFYTYAMGRYRQAPGKERELVAVISSGGSTNYADSVKGRFTISRDTAKNNVYLQMNSLKPEDTAVYYCNADTGAADYFDFDYWGQGTQVTVSS
Output line: low polyreactivity

Input line: Next sequence up: QVQLVESGGGLVQAGGSLRLSCAASGSIFEWYAMGWYRLAPGKERELVAVFSVRGGSTYYADSVKGRFTMSRENAKNTVYLQMNSLKPEDTAVYYCAADRVAPYYGHKRFYSGGQGTQVTVSS
Output line: high polyreactivity

Input line: Next sequence up: QVQLVESGGGLVQAGGSLRLSCAASGRIFWYYPMGGYRQAPGKEREYVATINTSGGSTYYADSVKGRFTISRDNAKNTVYLQMNRLKPEDTAVYYCNAAYRFYRTEYYSWGQGTQVTVSS
Output line: low polyreactivity

Input line: Next sequence up: QVQLVESGGGLVQAGGSLRLSCAASGSIFTSYAMGWYRQAPGTERELVAVITSSGSSTYYADSVKGRFTISRDNAKNTVYLQMNSMKPEDTAVYYCYGYYDAYGYWGQGTQVTVSS
Output line: low polyreactivity

Input line: Next sequence up: QVQLVESGGGLVQAGGSLRLSCAASGGTFQYYTMGWYRQAPGKERELVAGISSGGSTYYPDSVKGRFTISRDNAMNTVYLQMNRLKPEVTAVYYCNAVSRRKTYGYRIIKYDYWGQGTQVTVSS
Output line: high polyreactivity

Input line: Next sequence up: QVQLVESGGGLVQAGGSLRLSCAASGFTFRNYAMGWYRQAPGKERELVAAISQSGGITYYADTVKGRFTISRDNAKNTVYLQMYSLKPEDTAVYYCAAERFPRSSKGYFRTYDYWGQGTQVTVSS
Output line: high polyreactivity
